Target: Gcr1 (UniProt P07261)
Sequence: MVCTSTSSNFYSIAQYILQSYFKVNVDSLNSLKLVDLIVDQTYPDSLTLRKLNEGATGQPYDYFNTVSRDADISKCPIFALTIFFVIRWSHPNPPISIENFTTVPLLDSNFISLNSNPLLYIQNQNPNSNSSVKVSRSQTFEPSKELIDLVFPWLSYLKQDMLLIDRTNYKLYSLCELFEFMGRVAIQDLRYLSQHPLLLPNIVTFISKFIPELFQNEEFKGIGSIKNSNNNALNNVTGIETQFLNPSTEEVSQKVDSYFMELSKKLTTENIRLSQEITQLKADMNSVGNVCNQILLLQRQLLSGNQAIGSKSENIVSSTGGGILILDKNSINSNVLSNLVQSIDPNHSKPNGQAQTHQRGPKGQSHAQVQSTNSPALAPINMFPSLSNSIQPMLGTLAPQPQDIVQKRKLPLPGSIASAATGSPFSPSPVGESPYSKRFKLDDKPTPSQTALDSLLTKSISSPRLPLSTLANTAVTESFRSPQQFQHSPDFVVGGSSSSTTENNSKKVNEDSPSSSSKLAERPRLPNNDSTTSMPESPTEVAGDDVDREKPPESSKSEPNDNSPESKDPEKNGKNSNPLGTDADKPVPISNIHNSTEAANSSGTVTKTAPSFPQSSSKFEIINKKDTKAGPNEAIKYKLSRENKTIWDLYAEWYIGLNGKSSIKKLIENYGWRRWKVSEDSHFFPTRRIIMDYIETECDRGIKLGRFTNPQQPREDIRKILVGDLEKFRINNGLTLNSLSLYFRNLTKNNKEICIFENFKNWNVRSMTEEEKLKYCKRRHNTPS
Experiment: PBM E-score (8-mer binding enrichment) (E-score (-0.5 to 0.5)); higher = stronger / more preferred TF binding
Conditions: protein concentration: 100 nM; construct: GST-full length
In all, about 33,000 sequences were measured (“E-score (-0.5 to 0.5)”: median about -0.011, highest 2% from about 0.28 on). The full list was thinned out, with the highest values kept by preference.
Catalogue of PBM E-score readings, one per entry.

[
  {
    "seq.text": "AGGTAAAG",
    "PBM E-score": -0.112
  },
  {
    "seq.text": "ACAGCCAC",
    "PBM E-score": -0.00306
  },
  {
    "seq.text": "AAGATATT",
    "PBM E-score": 0.125
  },
  {
    "seq.text": "GAAAACGC",
    "PBM E-score": -0.167
  },
  {
    "seq.text": "ATCCTGAC",
    "PBM E-score": 0.163
  },
  {
    "seq.text": "GAGCAATA",
    "PBM E-score": 0.0781
  },
  {
    "seq.text": "CTAAACGC",
    "PBM E-score": 0.0998
  },
  {
    "seq.text": "ACGCTGCG",
    "PBM E-score": 0.086
  },
  {
    "seq.text": "CTCTTCAA",
    "PBM E-score": 0.00436
  },
  {
    "seq.text": "TCAGCCAA",
    "PBM E-score": -0.102
  },
  {
    "seq.text": "GTCCTGTA",
    "PBM E-score": 0.168
  },
  {
    "seq.text": "GTTCATCA",
    "PBM E-score": 0.108
  },
  {
    "seq.text": "ATAATTAA",
    "PBM E-score": 0.134
  },
  {
    "seq.text": "GGGCCTAC",
    "PBM E-score": -0.25
  },
  {
    "seq.text": "GAGCGACA",
    "PBM E-score": -0.0391
  },
  {
    "seq.text": "AGCCCGTG",
    "PBM E-score": -0.0206
  },
  {
    "seq.text": "ACGCTGAT",
    "PBM E-score": -0.0742
  },
  {
    "seq.text": "GCGATCAC",
    "PBM E-score": -0.0279
  },
  {
    "seq.text": "AGACGCGC",
    "PBM E-score": 0.289
  },
  {
    "seq.text": "CAGCTGTC",
    "PBM E-score": -0.0336
  },
  {
    "seq.text": "ATAGGGTC",
    "PBM E-score": -0.162
  },
  {
    "seq.text": "ATGTTGTC",
    "PBM E-score": -0.117
  },
  {
    "seq.text": "ATAATTAT",
    "PBM E-score": 0.297
  },
  {
    "seq.text": "AATAATGA",
    "PBM E-score": 0.0865
  },
  {
    "seq.text": "AAATCGTT",
    "PBM E-score": -0.0365
  },
  {
    "seq.text": "AGACGCGA",
    "PBM E-score": 0.214
  },
  {
    "seq.text": "GCGCTGCC",
    "PBM E-score": 0.0863
  },
  {
    "seq.text": "ACGCTGCA",
    "PBM E-score": 0.0243
  },
  {
    "seq.text": "ATGATTTC",
    "PBM E-score": -0.142
  },
  {
    "seq.text": "GAGAGTGA",
    "PBM E-score": -0.261
  },
  {
    "seq.text": "CGACGCGC",
    "PBM E-score": 0.0401
  },
  {
    "seq.text": "ATGTGGTC",
    "PBM E-score": -0.0553
  },
  {
    "seq.text": "AGGCGAGC",
    "PBM E-score": -0.0288
  },
  {
    "seq.text": "GCAGCCAA",
    "PBM E-score": 0.395
  },
  {
    "seq.text": "ACGCTGCT",
    "PBM E-score": 0.34
  },
  {
    "seq.text": "CTCATCAG",
    "PBM E-score": 0.0338
  },
  {
    "seq.text": "GCAGCCAC",
    "PBM E-score": 0.383
  },
  {
    "seq.text": "ACGCTGCC",
    "PBM E-score": 0.339
  },
  {
    "seq.text": "GAAGCGCA",
    "PBM E-score": 0.129
  },
  {
    "seq.text": "CTGCGACA",
    "PBM E-score": -0.106
  },
  {
    "seq.text": "CTCCGATC",
    "PBM E-score": -0.00026
  },
  {
    "seq.text": "CCTGGTCG",
    "PBM E-score": -0.127
  },
  {
    "seq.text": "ACACTGGT",
    "PBM E-score": 0.035
  },
  {
    "seq.text": "CTCCGCGA",
    "PBM E-score": 0.0908
  },
  {
    "seq.text": "ATGAAATG",
    "PBM E-score": 0.104
  },
  {
    "seq.text": "ACTTTGCA",
    "PBM E-score": -0.0113
  }
]
